Quick reference for pIC50 among some molecules
assayed-system: Recombinant human HSD17B13 enzyme (Homo sapiens)
Sequence (Q7Z5P4 20-300): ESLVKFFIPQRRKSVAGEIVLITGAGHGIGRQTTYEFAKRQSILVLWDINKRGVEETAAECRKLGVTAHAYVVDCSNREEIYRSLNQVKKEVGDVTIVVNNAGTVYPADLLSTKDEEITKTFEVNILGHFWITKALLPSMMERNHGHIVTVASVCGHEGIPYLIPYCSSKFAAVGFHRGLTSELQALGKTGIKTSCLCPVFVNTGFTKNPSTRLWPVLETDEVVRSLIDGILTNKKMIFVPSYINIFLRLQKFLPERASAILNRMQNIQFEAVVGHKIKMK
assay-overview: HSD17b13 NAD(P)H-Glo biochemical assay
setup-conditions: 50 uM estradiol, 1 mM NAD+, NAD(P)H-Glo luminescence; read-out: HSD17β13 IC50
Description: Example B-1: HSD17b13 NAD(P)H-Glo Biochemical Assay Recombinant human HSD17B13 enzyme. Substrate: estradiol (Sigma β-Estradiol E8875), 100 mM in DMSO. Cofactor: NAD+ Grade I free acid (Sigma 10127965001), 20 mM in H2O. […] Enzymatic activity detected by NAD(P)H-Glo™ Detection System (Promega G9062). […] HSD17b13 enzyme was diluted in 1× assay buffer to the desired enzyme concentration based on the specific activity of the enzyme lot. […] After incubating for 1 hour at RT, luminescence was measured.
pIC50: −log10 of the molar value.

Consider the following illustrative entries.
[
  {
    "molecule": "Cn1nc(-c2cc(C(F)(F)F)c(F)c(O)c2F)c2cnc(N3CCOC(C4CC4)C3)nc21 (stereo not drawn)",
    "assayed-system": "Recombinant human HSD17B13 enzyme (Homo sapiens)",
    "recorded-metric": "pIC50",
    "observed-value": "> 7.00"
  },
  {
    "molecule": "Cn1nc(-c2cc(C(F)(F)F)c(F)c(O)c2F)c2cnc(N3CCOC4(CC4)C3)cc21",
    "assayed-system": "Recombinant human HSD17B13 enzyme (Homo sapiens)",
    "recorded-metric": "pIC50",
    "observed-value": "> 7.00"
  },
  {
    "molecule": "Cn1nc(-c2cc(C(F)(F)F)c(F)c(O)c2F)c2cnc(N3CCOCC34CCCC4)cc21",
    "assayed-system": "Recombinant human HSD17B13 enzyme (Homo sapiens)",
    "recorded-metric": "pIC50",
    "observed-value": "> 7.00"
  },
  {
    "molecule": "CN(CC1CC1)c1cc2c(cn1)c(-c1cc(C(F)(F)F)c(F)c(O)c1F)nn2C",
    "assayed-system": "Recombinant human HSD17B13 enzyme (Homo sapiens)",
    "recorded-metric": "pIC50",
    "observed-value": "> 7.00"
  },
  {
    "molecule": "COC1CCN(c2ncc3c(-c4cc(C(F)(F)F)c(F)c(O)c4F)nn(C)c3n2)CC1",
    "assayed-system": "Recombinant human HSD17B13 enzyme (Homo sapiens)",
    "recorded-metric": "pIC50",
    "observed-value": "> 7.00"
  },
  {
    "molecule": "Cn1nc(-c2cc(C(F)(F)F)c(F)c(O)c2F)c2cnc(N3CCOC(CO)C3)nc21 (stereo not drawn)",
    "assayed-system": "Recombinant human HSD17B13 enzyme (Homo sapiens)",
    "recorded-metric": "pIC50",
    "observed-value": "6.00 to 7.00"
  },
  {
    "molecule": "Cn1nc(-c2cc(C(F)(F)F)c(F)c(O)c2F)c2cnc(N3CCN(S(C)(=O)=O)CC3)nc21",
    "assayed-system": "Recombinant human HSD17B13 enzyme (Homo sapiens)",
    "recorded-metric": "pIC50",
    "observed-value": "> 7.00"
  },
  {
    "molecule": "Cn1nc(-c2cc(C(F)(F)F)c(F)c(O)c2F)c2cnc(N3CCC(NS(C)(=O)=O)CC3)nc21",
    "assayed-system": "Recombinant human HSD17B13 enzyme (Homo sapiens)",
    "recorded-metric": "pIC50",
    "observed-value": "> 7.00"
  }
]

Ask | Form field: reported pIC50 of `Cn1nc(-c2cc(C(F)(F)F)c(F)c(O)c2F)c2cnc(N3CCNCC3)nc21`
Reply | 6.00 to 7.00

Ask | Another molecule to check: `CCn1nc(-c2cc(C(F)(F)F)c(F)c(O)c2F)c2cnc(N3CCOCC34CC4)cc21`
Reply | > 7.00

Ask | Another molecule to check: `COC1CCN(c2cc3c(cn2)c(-c2cc(C(F)(F)F)c(F)c(O)c2F)nn3C)CC1`
Reply | > 7.00

Ask | Another molecule to check: `COC1(CO)CCN(c2ncc3c(-c4cc(C(F)(F)F)c(F)c(O)c4F)nn(C)c3n2)CC1`
Reply | > 7.00

Ask | Another molecule to check: Cn1nc(-c2cc(C(F)(F)F)c(F)c(O)c2F)c2cnc(N3CCOCC3C3CCC3)cc21 (stereo not drawn)
Reply | > 7.00

Ask | Another molecule to check: `CS(=O)(=O)N1CCN(c2ccc3c(-c4cc(O)c(F)c(C(F)(F)F)c4)n[nH]c3c2)CC1`
Reply | 6.00 to 7.00

Ask | Another molecule to check: `Oc1c(F)c(-c2nn(C3CCOCC3)c3cc(N4CCOCC45CC5)ncc23)cc(C(F)(F)F)c1F`
Reply | > 7.00
